molecular target: p38α (Homo sapiens, UniProt Q16539); test: p38α inhibition IC50; type: biochemical; conditions: Table 4; read-out: p38a IC50
Sequence (Q16539 whole entry): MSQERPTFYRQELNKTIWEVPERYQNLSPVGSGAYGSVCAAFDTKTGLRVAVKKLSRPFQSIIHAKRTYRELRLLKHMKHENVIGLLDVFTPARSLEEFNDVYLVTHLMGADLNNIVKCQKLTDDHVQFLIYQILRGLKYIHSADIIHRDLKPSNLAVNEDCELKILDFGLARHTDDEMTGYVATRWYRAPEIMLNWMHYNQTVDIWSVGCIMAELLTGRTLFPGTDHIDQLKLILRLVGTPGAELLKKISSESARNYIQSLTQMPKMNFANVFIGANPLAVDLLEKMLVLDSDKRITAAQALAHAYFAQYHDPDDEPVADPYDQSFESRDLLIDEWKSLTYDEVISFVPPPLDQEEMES
Measured pIC50 of individual entries
As a rule, pIC50 stands for the negative log10 of the concentration, concentration in M.

These recorded examples may help you get a feel for the data.
molecule: Fc1ccc(-c2nn(CC(F)(F)F)cc2-c2ccnc3[nH]ccc23)cc1
test_readout: pIC50
test_result: 7.30
--
molecule: Nc1nccc(-c2c(-c3ccc(F)cc3)ncn2C2CCCCC2)n1 [PF-670462, reference compound]
test_readout: pIC50
test_result: 7.49
--
molecule: Fc1ccc(-c2nc3ccc(N4CCNC5(CC5)C4)nn3c2-c2ccncc2)cc1
test_readout: pIC50
test_result: 7.54
--
molecule: Fc1ccc(-c2nc3ccc(N4CCC(N5CCCC5)CC4)nn3c2-c2ccncc2)cc1
test_readout: pIC50
test_result: 7.38
--
molecule: Cn1cc(-c2ccncc2)c(-c2ccc(F)cc2)n1
test_readout: pIC50
test_result: 7.20

Lookup: Let me know recorded pIC50 for `Fc1ccc(-c2nc3sc(N4CCNCC4)nn3c2-c2ccncc2)cc1` , thanks.
Found: 7.66

Lookup: Return value of pIC50 for input `Fc1ccc(-c2nc3ccc(N4CCOCC4)nn3c2-c2ccncc2)cc1` , no commentary.
Found: 5.90

Lookup: Tell us which pIC50 value is on record for `CC1(C)CN(c2ccc3nc(-c4ccc(F)cc4)c(-c4ccncc4)n3n2)CCN1`
Found: 7.88

Lookup: Let me know recorded pIC50 for `Cn1cc(-c2ccnc(N)n2)c(-c2ccc(F)cc2)n1` , thanks.
Found: 6.51

From: patent US20220226340A1
